- System: Wolbachia pipientis
- test.protocol: Anti-Wolbachia Cell-Based Screen
- Type: functional
- Set-up: scale not given: in the data most compounds retested in dose-response had high values
- settings: 5 µM
The whole screen tested about 48,000 compounds, of which about 13,000 (27%) showed an effect of 50% or more. This is one part of the list.
Each entry below carries its recorded Percent Effect.

molecule: Cc1ccc(C(=O)Nc2cn[nH]c2)cc1C
tested.target: Wolbachia pipientis
Percent Effect [%]: -10.82
//
molecule: CCSc1ccccc1C(=O)N(CCOC)Cc1ccoc1
tested.target: Wolbachia pipientis
Percent Effect [%]: 121.3
//
molecule: CCNC(=O)N1CCN(Cc2nc3ccccc3[nH]2)[C@@H]2CS(=O)(=O)C[C@@H]21
tested.target: Wolbachia pipientis
Percent Effect [%]: 3.535
//
molecule: O=C(NCc1ccccc1CN1CCCC1=O)Nc1nccs1
tested.target: Wolbachia pipientis
Percent Effect [%]: -2.659
//
molecule: c1nc(N2CCCC2)ncc1CN1CCCC(CN2CCCCC2)C1 (centres undefined)
tested.target: Wolbachia pipientis
Percent Effect [%]: 95.39
//
molecule: Cc1cc(C)n(CC2CCCCN2CC(=O)Nc2nccs2)n1 (centres undefined)
tested.target: Wolbachia pipientis
Percent Effect [%]: -11.15
//
molecule: N[C@H]1CN(Cc2cnc(N3CCCC3)nc2)C[C@@H]1C1CC1
tested.target: Wolbachia pipientis
Percent Effect [%]: -16.17
//
molecule: Cn1ccc(CN2CCC(Oc3ccccc3)CC2)cc1=O
tested.target: Wolbachia pipientis
Percent Effect [%]: 0.4399
//
molecule: CCN(CC)C(=O)Cc1csc(C(C)C)n1
tested.target: Wolbachia pipientis
Percent Effect [%]: -7.822
//
molecule: COc1ccc(OC2CCN(Cc3ccn(C)c(=O)c3)CC2)cc1
tested.target: Wolbachia pipientis
Percent Effect [%]: 90.95
//
molecule: COCCN(Cc1ccoc1)C(=O)c1c(F)cccc1Cl
tested.target: Wolbachia pipientis
Percent Effect [%]: -1.026
//
molecule: CN1CCC(c2nccnc2Nc2cnccn2)CC1
tested.target: Wolbachia pipientis
Percent Effect [%]: 94.48
//
molecule: COc1cc(Cl)ccc1C(=O)NCC(=O)Nc1nccs1
tested.target: Wolbachia pipientis
Percent Effect [%]: -9.549
//
molecule: Cc1cccc(C)c1OC1CCN(Cc2ccn(C)c(=O)c2)CC1
tested.target: Wolbachia pipientis
Percent Effect [%]: 80.01
//
molecule: OCC(CO)N1CCC(c2nccnc2Nc2cnccn2)CC1
tested.target: Wolbachia pipientis
Percent Effect [%]: 132.8
//
molecule: O=C(c1cccc(S(=O)(=O)NCCc2cscn2)c1)N1CCOCC1
tested.target: Wolbachia pipientis
Percent Effect [%]: -14.28
//
molecule: CC(C)C(C)(O)CNc1cccc(F)c1C#N (centres undefined)
tested.target: Wolbachia pipientis
Percent Effect [%]: 29.17
//
molecule: COc1ccccc1-c1ncc(CN2CCCC(CCC(N)=O)C2)s1 (centres undefined)
tested.target: Wolbachia pipientis
Percent Effect [%]: 16.75
//
molecule: NC(=O)CCC1CCCN(Cc2cnc(N3CCCCC3)nc2)C1 (centres undefined)
tested.target: Wolbachia pipientis
Percent Effect [%]: 104.2
//
molecule: CC(C(=O)NC(C)(C)C)N1CCC(C(=O)Nc2cnccn2)CC1 (centres undefined)
tested.target: Wolbachia pipientis
Percent Effect [%]: -9.659
//
molecule: OCC(CO)N1CCC(c2nnc(Cn3ccnc3)n2C2CC2)CC1
tested.target: Wolbachia pipientis
Percent Effect [%]: 11.43
//
molecule: Cc1cccc(C(=O)N2CCN(S(C)(=O)=O)[C@@H]3CS(=O)(=O)C[C@@H]32)n1
tested.target: Wolbachia pipientis
Percent Effect [%]: -7.495
//
molecule: Cc1ccccc1C(=O)Nc1cnn(CC(=O)NC2CCCC2)c1
tested.target: Wolbachia pipientis
Percent Effect [%]: -2.578
//
molecule: CC(C)C(Sc1ccccc1)C(=O)N(C)Cc1nnc2n1CCC2 (centres undefined)
tested.target: Wolbachia pipientis
Percent Effect [%]: 14.25
